- Test system: P. aeruginosa CDC-0110
- PROTOCOL_TEXT: microbe, parasite or virus in culture
- Type: cell-based
- ASSAY_CONTEXT: Pseudomonas aeruginosa, CDC0110, read-out: Minimum inhibitory concentration, P. aeruginosa CDC-0110
ASSAY_READOUT: MIC

// known answers, use as guide
COMPOUND | MIC
CN(CCN1CCN(C(=O)N[C@@H](C(=O)N[C@H]2Cc3ccc(F)c(C(=O)O)c3OB2O)c2cc(F)c(O)c(O)c2Cl)C(=O)C1=O)Cc1cncc(O)c1 | < 1 µg/mL
O=C(NCCCN1CCN(C(=O)N[C@@H](C(=O)N[C@H]2Cc3ccc(F)c(C(=O)O)c3OB2O)c2cc(F)c(O)c(O)c2Cl)C(=O)C1=O)c1cc(F)c(O)c(F)c1 | < 1 µg/mL

q: Recorded MIC for O=C(NCCCN1CCN(C(=O)NC(C(=O)N[C@H]2Cc3ccc(F)c(C(=O)O)c3OB2O)c2cc(F)c(O)c(O)c2Cl)C(=O)C1=O)c1c(F)cc(O)cc1Cl (some centres unmarked) , please?
a: < 1 µg/mL

q: Recorded MIC for O=C(CN1CCN(C(=O)NC(C(=O)N[C@H]2Cc3ccc(F)c(C(=O)O)c3OB2O)c2cc(F)c(O)c(O)c2Cl)C(=O)C1=O)NCc1cccc(O)c1 (some centres unmarked) , please?
a: < 1 µg/mL

q: Recorded MIC for O=C(O)c1c(F)ccc2c1OB(O)[C@@H](NC(=O)[C@@H](NC(=O)N1CCN(Cc3ccc(O)c(O)c3Cl)C(=O)C1=O)c1cccc(P(=O)(O)O)c1)C2 (single isomer, unassigned) , please?
a: 2 to 4 µg/mL

q: Recorded MIC for O=C(O)c1c(F)ccc2c1OB(O)[C@@H](NC(=O)[C@@H](NC(=O)N1CCN(C3CCN(C(=O)Nc4ccc(O)cc4)CC3)C1=O)c1cc(F)c(O)c(O)c1Cl)C2 (single isomer, unassigned) , please?
a: < 1 µg/mL

q: Recorded MIC for O=C(O)c1c(F)ccc2c1OB(O)[C@@H](NC(=O)C(NC(=O)N1CCN(CCNC(=O)[C@@H]3CCCN3)C1=O)c1cc(F)c(O)c(O)c1Cl)C2 (some centres unmarked) , please?
a: < 1 µg/mL

q: Recorded MIC for O=C(NCCCN1CCN(C(=O)NC(C(=O)N[C@H]2Cc3ccc(F)c(C(=O)O)c3OB2O)c2cc(F)c(O)c(O)c2Cl)C(=O)C1=O)c1ccc(F)c(O)c1 (some centres unmarked) , please?
a: < 1 µg/mL

q: Recorded MIC for O=C(O)c1c(F)ccc2c1OB(O)[C@@H](NC(=O)C(NC(=O)N1CCN(CC3CCN(C(=O)Nc4cccc(O)c4)CC3)C(=O)C1=O)c1cc(F)c(O)c(O)c1Cl)C2 (some centres unmarked) , please?
a: < 1 µg/mL

q: Recorded MIC for O=C(NCCCN1CCN(C(=O)N[C@H](C(=O)N[C@H]2Cc3ccc(F)c(C(=O)O)c3OB2O)c2cc(F)c(O)c(O)c2Cl)C(=O)C1=O)c1cccc(O)c1Cl , please?
a: > 128 µg/mL

q: Recorded MIC for O=C(O)c1c(F)ccc2c1OB(O)[C@@H](NC(=O)C(NC(=O)N1CCN(Cc3ccc(O)c(O)c3Cl)C1=O)c1ccc(P(=O)(O)O)cc1)C2 (some centres unmarked) , please?
a: < 1 µg/mL

q: Recorded MIC for O=C(NCCCN1CCN(C(=O)NC(C(=O)N[C@H]2Cc3ccc(F)c(C(=O)O)c3OB2O)c2cc(F)c(O)c(O)c2Cl)C(=O)C1=O)c1ccc(O)cc1 (some centres unmarked) , please?
a: < 1 µg/mL
